The reader will find reported % Activity at 1 μM (AUC**) values listed item by item below.
Molecular target: CFTR ΔF508 (Homo sapiens, UniProt P13569, DEL508-508)
Construct: bronchial epithelial cells isolated from CF patients homozygous for the CFTR ΔF508 mutation; McGill University; Asterand; University of North Carolina hAEC-CF; host or cells: primary human bronchial epithelial cells from CF patients homozygous for ΔF508, differentiated at air-liquid interface
Sequence (P13569 with tags, fused parts or gaps DEL508-508): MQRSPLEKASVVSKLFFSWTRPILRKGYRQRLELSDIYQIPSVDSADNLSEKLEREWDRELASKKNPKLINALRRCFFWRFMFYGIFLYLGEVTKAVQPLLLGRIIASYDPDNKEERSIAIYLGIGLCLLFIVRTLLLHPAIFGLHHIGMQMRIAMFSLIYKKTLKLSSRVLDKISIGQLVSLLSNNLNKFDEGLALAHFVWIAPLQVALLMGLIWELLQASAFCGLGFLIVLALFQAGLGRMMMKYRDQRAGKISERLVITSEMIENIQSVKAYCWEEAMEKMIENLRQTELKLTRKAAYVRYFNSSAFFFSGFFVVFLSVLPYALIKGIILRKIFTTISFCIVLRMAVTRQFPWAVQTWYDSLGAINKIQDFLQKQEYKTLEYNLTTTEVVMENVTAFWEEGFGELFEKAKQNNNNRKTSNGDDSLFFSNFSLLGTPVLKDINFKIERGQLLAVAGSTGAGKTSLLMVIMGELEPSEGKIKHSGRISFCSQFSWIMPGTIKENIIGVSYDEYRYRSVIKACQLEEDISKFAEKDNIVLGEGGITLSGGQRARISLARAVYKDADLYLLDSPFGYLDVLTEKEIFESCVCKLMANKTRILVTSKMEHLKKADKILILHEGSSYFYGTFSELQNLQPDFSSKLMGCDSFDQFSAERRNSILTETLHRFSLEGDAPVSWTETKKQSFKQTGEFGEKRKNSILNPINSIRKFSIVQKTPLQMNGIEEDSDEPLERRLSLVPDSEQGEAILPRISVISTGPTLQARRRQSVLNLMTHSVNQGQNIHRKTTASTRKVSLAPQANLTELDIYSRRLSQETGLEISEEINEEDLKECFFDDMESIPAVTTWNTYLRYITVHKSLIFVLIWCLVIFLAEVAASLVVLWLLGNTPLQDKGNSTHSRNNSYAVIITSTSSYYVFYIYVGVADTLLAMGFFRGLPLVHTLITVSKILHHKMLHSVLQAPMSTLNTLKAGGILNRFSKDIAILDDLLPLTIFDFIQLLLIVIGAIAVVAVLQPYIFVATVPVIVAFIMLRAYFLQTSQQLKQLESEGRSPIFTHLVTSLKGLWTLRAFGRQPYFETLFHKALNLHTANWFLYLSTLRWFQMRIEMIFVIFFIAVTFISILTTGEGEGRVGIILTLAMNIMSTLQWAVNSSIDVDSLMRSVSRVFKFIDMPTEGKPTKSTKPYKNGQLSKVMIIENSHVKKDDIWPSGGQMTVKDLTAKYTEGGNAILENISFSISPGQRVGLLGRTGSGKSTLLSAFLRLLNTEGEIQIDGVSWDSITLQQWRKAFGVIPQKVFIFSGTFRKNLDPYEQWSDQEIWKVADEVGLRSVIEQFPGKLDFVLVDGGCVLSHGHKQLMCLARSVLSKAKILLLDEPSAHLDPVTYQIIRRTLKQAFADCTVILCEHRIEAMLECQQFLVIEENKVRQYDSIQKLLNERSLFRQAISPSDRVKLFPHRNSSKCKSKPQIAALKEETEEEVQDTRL
Experiment: Chronic TECC assay, primary bronchial epithelial cells of CF patients homozygous for CFTR ΔF508 (corrector, co-corrector and potentiator)
Format: cell-based
Details: chronic TECC; test compound at 1 μM; AUC = full area under the curve upon forskolin stimulation
Please respond with the number in % and leave the unit unwritten.

Known % Activity at 1 μM (AUC**) results, listed for orientation:
> print(dat)
                          compoundstructure  measurement
1  COCCS(=O)(=O)NC(=O)c1cc(N2CCC(COC)CC2)c2c(C(C)C)nn(-c3ccnc(N4CCOCC4)c3)c2n1       271.29
2  COCC1CCN(c2cc(C(=O)NS(=O)(=O)N3CCC(F)CC3)nc3c2c(C2CCC2)nn3-c2ccccc2)CC1     244.7508
3  COCCN(C)S(=O)(=O)NC(=O)c1cc(N2CCC(N3CCOCC3)CC2)c2c(C3CCC3)nn(-c3ccc(F)cc3)c2n1     296.6667
4  COCCS(=O)(=O)NC(=O)c1cc(N2CCC(CN3CCOCC3)CC2)c2c(C3CCC3)nn(-c3ccc(F)cc3)c2n1          330
5  C[C@@H](C1CCN(c2cc(C(=O)NS(=O)(=O)N(C)C)nc3c2c(C2CCC2)nn3-c2ccc(F)cc2)CC1)N1CCOCC1      548.575

Prompt line: # % Activity at 1 μM (AUC**) lookup, item CS(=O)(=O)NC(=O)c1cc(N2CCC(S(C)(=O)=O)CC2)c2c(C3CCC3)nn(-c3ccccc3)c2n1
Response line: 269

Prompt line: Field request: % Activity at 1 μM (AUC**) | item: COC(=O)N1CCC(COc2cc(C(=O)NS(C)(=O)=O)nc3c2c(C2CCC2)nn3-c2ccccc2)CC1
Response line: 470.97

----------
Listing: EC50 of selected compounds
Biological target: ΔF508-CFTR (Homo sapiens, UniProt P13569, DEL508-508)
Construct: host or cells: CFBE41o-, doxycycline-inducible
Assay: CFTR cell surface levels using HRP-tagged ΔF508-CFTR expressing CFBE cells, intrinsic corrector capacity
Type: cell-based
Conditions: HRP-tagged ΔF508-CFTR expressing CFBE41o- cells; compound alone (intrinsic corrector capacity); 20 hours at 33° C.; read-out: EC50
Just the number in nM, nothing appended.

> print(dat)
                          compoundstructure                                  testedon  unitstext  measurement
1  O=C(c1cc(N2CCC(N3CCOCC3)CC2)c2c(C3CCC3)nn(-c3ccccc3)c2n1)N1CCCS1(=O)=O  ΔF508-CFTR (Homo sapiens, UniProt P13569, DEL508-508)         nM          259
2  CCOC(=O)N1CCN(c2cc(C(=O)NS(C)(=O)=O)nc3c2c(C(C)C)nn3-c2ccc(F)cc2)CC1  ΔF508-CFTR (Homo sapiens, UniProt P13569, DEL508-508)         nM          134
3  COC1CCN(C2CCN(c3cc(C(=O)NS(=O)(=O)N4CCOCC4)nc4c3c(C3CCC3)nn4-c3ccc(F)cc3)CC2)CC1  ΔF508-CFTR (Homo sapiens, UniProt P13569, DEL508-508)         nM          216

Lab note: next compound to report on.
Prompt line: Tell me the measured EC50 of CC(C)c1nn(-c2ccc(F)cc2)c2nc(C(=O)NS(C)(=O)=O)cc(OCCCN3CCOCC3)c12 , please.
Response line: 1060

----------
Target: ΔF508-CFTR (Homo sapiens, UniProt P13569, DEL508-508)
Construct: host or cells: CFBE41o-, doxycycline-inducible
Assay: CFTR cell surface levels using HRP-tagged ΔF508-CFTR expressing CFBE cells, intrinsic corrector capacity
Assay type: cell-based
Design: concentration or dose not given beside the values
Details: HRP-tagged ΔF508-CFTR expressing CFBE41o- cells; compound alone (intrinsic corrector capacity); 20 hours at 33° C.
# cutoff 200% applies to % Activation; >= gives fulfilled, < gives not fulfilled

Answered examples (3):
> print(dat)
                                   compound     labelvalue
1  CN(C)S(=O)(=O)NC(=O)c1cc(N2CCC(CCN3CCOCC3)CC2)c2c(C3CCC3)nn(-c3ccc(F)cc3)c2n1      fulfilled
2  COCC1CCCN(c2cc(C(=O)NS(C)(=O)=O)nc3c2c(C2CCC2)nn3-c2ccccc2)C1 (stereo not shown)  not fulfilled
3  COC1CCN(c2cc(C(=O)NS(C)(=O)=O)nc3c2c(C(C)C)nn3-c2cccc(C)c2)CC1      fulfilled

Prompt line: Quick check, % Activation >= 200%? CC(C)c1nn(-c2cccc(N(C)C)c2)c2nc(C(=O)NS(C)(=O)=O)cc(-c3ccc(N4CCC(C#N)CC4)cc3)c12
Response line: fulfilled

Prompt line: Identify whether the reported % Activation of the following compound is 200% or greater: O=C(NS(=O)(=O)N1CC(F)C1)c1cc(N2CCC(N3CCOCC3)CC2)c2c(C3CCC3)nn(-c3ccc(F)cc3)c2n1
Response line: fulfilled

Prompt line: // inclusive: % Activation at least 200%? input: Cc1cccc(-n2nc(C3CCC3)c3c(N4CCC(N5CCOCC5)CC4)cc(C(=O)NS(C)(=O)=O)nc32)c1
Response line: fulfilled

----------
Target: ΔF508-CFTR (Homo sapiens, UniProt P13569, DEL508-508)
Construct: host or cells: CFBE41o-, doxycycline-inducible
Experiment: CFTR cell surface levels using HRP-tagged ΔF508-CFTR expressing CFBE cells, in the presence of a co-corrector
Type: cell-based
Settings: HRP-tagged ΔF508-CFTR CFBE cells, in the presence of 3 μM co-corrector
observationType: % Activation (%)
I only need the number, in %, no unit after it.

Field: example entries. Status: answers known.
> print(dat)
                          compoundstructure  measurement
1  COCCN(C)c1ccc(-c2cc(C(=O)NS(C)(=O)=O)nc3c2c(C(C)C)nn3-c2cccc(N(C)C)c2)cn1        468.2
2  CC(C)c1nn(-c2cccc(C(F)(F)F)c2)c2nc(C(=O)NS(C)(=O)=O)cc(-c3ccc(N4CCC(C#N)CC4)nc3)c12       447.23

API: the following record is the query input.
Prompt line: Give the measured % Activation of CC(C)c1nn(-c2cccc(OC(F)(F)F)c2)c2nc(C(=O)NS(C)(=O)=O)cc(-c3ccc(N4CCOCC4)cc3)c12 .
Response line: 487.53

----------
Target: ΔF508-CFTR (Homo sapiens, UniProt P13569, DEL508-508)
Construct: host or cells: CFBE41o-, doxycycline-inducible
Experiment: CFTR cell surface levels using HRP-tagged ΔF508-CFTR expressing CFBE cells, intrinsic corrector capacity
Format: cell-based
Design: concentration or dose not given beside the values
Conditions: HRP-tagged ΔF508-CFTR expressing CFBE41o- cells; compound alone (intrinsic corrector capacity); 20 hours at 33° C.
observationType: % Activation
Be sure to follow the number with its unit.

// known answers, use as guide
> print(dat)
                                   compound  observationtype  measurement
1  CNS(=O)(=O)NC(=O)c1cc(N2CCC(N3CCN(C4CC4)CC3)CC2)c2c(C3CCC3)nn(-c3ccccc3)c2n1     % Activation       399.1%
2  COCCOCC1(F)CCN(c2cc(C(=O)NS(C)(=O)=O)nc3c2c(C2CCC2)nn3-c2ccccc2)CC1     % Activation       214.2%
3  COCC1CCN(c2cc(C(=O)NS(=O)(=O)C3CCOC3)nc3c2c(C2CCC2)nn3-c2ccccc2)CC1 (stereo not shown)     % Activation       292.7%
4  CS(=O)(=O)NC(=O)c1cc(CN2CCOCC2)c2c(C3CCC3)nn(-c3ccc(F)cc3)c2n1     % Activation       114.4%

Prompt line: Which % Activation reading was recorded for the compound O=C(c1cc(N2CCC(N3CCOCC3)CC2)c2c(C3CCC3)nn(-c3ccccc3)c2n1)N1CCCCS1(=O)=O ?
Response line: 99.775%

Prompt line: Entry under review: COC1CN(S(=O)(=O)NC(=O)c2cc(N3CCC(N4CCOCC4)CC3)c3c(C4CCC4)nn(-c4ccc(F)cc4)c3n2)C1 . Reported % Activation?
Response line: 216.9%

Prompt line: What measured % Activation goes with CCS(=O)(=O)N(C)C(=O)c1cc(N2CCC(N3CCOCC3)CC2)c2c(C3CCC3)nn(-c3ccccc3)c2n1 ?
Response line: 99.025%
